PROCEDURE DETAILS: Viscosity responsiveness: fluorescence emission spectra of probes in glycerol and methanol
Format: physicochemical
SETUP CONDITIONS: excited at maximum excitation wavelength of each probe
Catalogue of molecules with associated Emission wavelength
Quick note: number first, unit second.

The cases that follow already have their Emission wavelength on record.
CN(CCOC(=O)NCc1ccc(COc2nccc(N)n2)cc1)c1ccc(/C=C(\C#N)C(=O)OC(C)(C)C)cc1 ... 480 nm
CN(CCOC(=O)NCc1ccc(COc2cc(Cl)nc(N)n2)cc1)c1cc2sc(/C=C(\C#N)c3nc4ccccc4s3)cc2s1 ... 610 nm
CC(C)(C)OC(=O)/C(C#N)=C/c1cc2ccc(N(CCC#N)CCOC(=O)NCc3ccc(COc4nc(N)nc5[nH]cnc45)cc3)cc2s1 ... 570 nm
CN(CCOC(=O)NCc1ccc(COc2nccc(N)n2)cc1)c1ccc(/C=C(\C#N)c2nc3ccccc3o2)cc1 ... 510 nm
CN(CCOC(=O)NCc1ccc(COc2nc(N)nc3[nH]cnc23)cc1)c1ccc(-c2ccc(/C=C(\C#N)C(=O)O)s2)s1 ... 656 nm

Output measured Emission wavelength for this item: CN(CCOC(=O)NCc1ccc(COc2nc(N)nc3[nH]cnc23)cc1)c1ccc(C#C/C=C(\C#N)C(=O)OC(C)(C)C)cc1
566 nm

Output measured Emission wavelength for this item: CN(CCOC(=O)NCc1ccc(COc2nc(N)nc3[nH]cnc23)cc1)c1ccc2nc(/C=C(\C#N)c3nc4ccccc4o3)oc2c1
620 nm

Output measured Emission wavelength for this item: CN(CCOC(=O)NCc1ccc(COc2nc(N)nc3[nH]cnc23)cc1)c1ccc2c(c1)sc1cc(C=C(C#N)C#N)sc12
620 nm

Output measured Emission wavelength for this item: CN(C)c1ccc(-c2ccc(/C=C(\C#N)C(=O)NCc3ccc(COc4nc(N)nc5[nH]cnc45)cc3)s2)cc1 [Reference Probe 116, reference compound]
620 nm

Output measured Emission wavelength for this item: CC1=CC(C)(C)N(CCOC(=O)NCc2ccc(COc3nccc(N)n3)cc2)c2ccc(/C=C(\C#N)c3nc4ccccc4s3)cc21
612 nm

Output measured Emission wavelength for this item: COCCOCCOCCOCCOCCN(CCOC(=O)NCc1ccc(COc2nc(N)nc3[nH]cnc23)cc1)c1ccc(/C=C(\C#N)C(=O)OC(C)(C)C)cc1
482 nm

Output measured Emission wavelength for this item: CN(CCO)c1ccc2cc(/C=C(\C#N)C(=O)NCc3ccc(COc4nc(N)nc5[nH]cnc45)cc3)sc2c1 [Reference Probe 112, reference compound]
570 nm

Output measured Emission wavelength for this item: CN(CCOC(=O)NCc1ccc(COc2nc(N)nc3[nH]cnc23)cc1)c1ccc(-c2ccc(/C=C(\C#N)C(=O)OC(C)(C)C)s2)cc1
620 nm

---

Catalogue of molecules with associated Fluorescence activation multiple
EXPERIMENTAL SYSTEM: SNAP protein tags (Homo sapiens, UniProt P16455, A127T/A154D/C150Q/C62A/E30R/G131K/G132T/G153L/K125A/K32I/L33F/M134L/N157G/Q115S/Q116H/R128A/R135S/S151G/S152D/S159E)
Sequence (P16455 1-182 E30R/K32I/L33F/C62A/Q115S/Q116H/K125A/A127T/R128A/G131K/G132T/M134L/R135S/C150Q/S151G/S152D/G153L/A154D/N157G/S159E): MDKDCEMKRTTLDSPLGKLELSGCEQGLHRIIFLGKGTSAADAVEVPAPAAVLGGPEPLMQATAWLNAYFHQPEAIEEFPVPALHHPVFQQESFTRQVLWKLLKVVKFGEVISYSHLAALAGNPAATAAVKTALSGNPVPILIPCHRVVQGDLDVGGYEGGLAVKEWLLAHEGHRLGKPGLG
PROCEDURE DETAILS: Fluorescence activation of probe after incubation with corresponding protein tag (SNAP)
Type: biochemical
SETUP CONDITIONS: probe 5 μM, protein tag 10 μM, 37° C., 1 hr
Give only the figure.

The cases that follow already have their Fluorescence activation multiple on record.
CN(CCOC(=O)NCc1ccc(COc2nc(N)nc3[nH]cnc23)cc1)c1cc2sc3cc(/C=C(\C#N)c4nc5ccccc5o4)sc3c2s1 ... 668
CC1=N/C(=C/c2cc3ccc(N(C)CCOC(=O)NCc4ccc(COc5nc(N)nc6[nH]cnc56)cc4)cc3s2)C(=O)N1C ... 212

Output measured Fluorescence activation multiple for this item: CN(CCOC(=O)NCc1ccc(COc2nc(N)nc3[nH]cnc23)cc1)c1ccc(C#C/C=C(\C#N)C(=O)OC(C)(C)C)cc1
989
